Measured values drawn from ChEMBL document CHEMBL1139460 for this set.

target: GABA-A receptor; alpha-3/beta-3/gamma-2 (Homo sapiens, UniProt P18507+P28472+P34903); test: Displacement of [3H]Ro 15-1788 from human recombinant GABAA alpha-3-beta-3-gamma-2 receptor expressed in L(tk-) cells
Sequence (P18507 whole entry): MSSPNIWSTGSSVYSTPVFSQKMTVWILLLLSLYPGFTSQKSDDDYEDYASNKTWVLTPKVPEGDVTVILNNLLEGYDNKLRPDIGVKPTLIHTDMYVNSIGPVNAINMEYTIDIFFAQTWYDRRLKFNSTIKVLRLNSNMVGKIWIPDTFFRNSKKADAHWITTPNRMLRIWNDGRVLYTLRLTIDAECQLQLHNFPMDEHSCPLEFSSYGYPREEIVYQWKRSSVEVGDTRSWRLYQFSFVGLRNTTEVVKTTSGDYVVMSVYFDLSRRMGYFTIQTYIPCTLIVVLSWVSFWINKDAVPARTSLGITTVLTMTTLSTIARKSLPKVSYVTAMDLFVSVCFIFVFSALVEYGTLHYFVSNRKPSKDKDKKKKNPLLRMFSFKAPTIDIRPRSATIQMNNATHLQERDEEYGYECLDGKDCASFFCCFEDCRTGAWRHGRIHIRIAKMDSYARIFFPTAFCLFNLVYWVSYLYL
Sequence (P28472 whole entry): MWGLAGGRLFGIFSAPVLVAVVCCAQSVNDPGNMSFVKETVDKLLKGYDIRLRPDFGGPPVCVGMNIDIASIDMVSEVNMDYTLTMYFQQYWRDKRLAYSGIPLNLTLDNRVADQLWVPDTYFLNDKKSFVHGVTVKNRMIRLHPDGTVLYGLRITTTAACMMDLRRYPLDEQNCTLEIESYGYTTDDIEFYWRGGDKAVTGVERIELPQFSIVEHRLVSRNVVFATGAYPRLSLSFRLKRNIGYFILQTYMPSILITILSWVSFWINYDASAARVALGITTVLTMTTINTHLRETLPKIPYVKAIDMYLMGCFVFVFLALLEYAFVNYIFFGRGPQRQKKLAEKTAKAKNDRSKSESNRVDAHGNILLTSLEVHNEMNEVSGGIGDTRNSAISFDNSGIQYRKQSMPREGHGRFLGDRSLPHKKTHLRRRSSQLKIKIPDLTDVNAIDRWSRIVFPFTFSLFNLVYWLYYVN
Sequence (P34903 whole entry): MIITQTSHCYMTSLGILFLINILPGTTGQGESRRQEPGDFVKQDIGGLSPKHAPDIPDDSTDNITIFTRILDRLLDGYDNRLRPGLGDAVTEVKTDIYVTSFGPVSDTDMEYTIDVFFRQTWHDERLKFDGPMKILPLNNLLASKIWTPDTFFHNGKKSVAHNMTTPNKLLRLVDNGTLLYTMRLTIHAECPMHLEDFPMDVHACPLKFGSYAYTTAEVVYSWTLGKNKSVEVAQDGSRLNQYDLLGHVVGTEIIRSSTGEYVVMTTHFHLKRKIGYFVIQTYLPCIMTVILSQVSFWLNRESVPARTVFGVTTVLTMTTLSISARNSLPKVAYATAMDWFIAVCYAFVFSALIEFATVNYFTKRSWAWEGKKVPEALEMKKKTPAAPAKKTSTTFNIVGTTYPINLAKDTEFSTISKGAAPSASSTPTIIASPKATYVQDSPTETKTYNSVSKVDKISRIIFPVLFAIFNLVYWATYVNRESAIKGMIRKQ

{"columns": ["smiles.entry", "experimental.target", "Ki [nM]"],
 "data": [
  ["Cn1ncnc1COc1nn2c(-c3ccccc3)nnc2cc1C1CCC1", "GABA-A receptor; alpha-3/beta-3/gamma-2 (Homo sapiens, UniProt P18507+P28472+P34903)", 0.17],
  ["Cn1ncnc1COc1nn2c(-c3ccccc3)nnc2cc1-c1ccccc1", "GABA-A receptor; alpha-3/beta-3/gamma-2 (Homo sapiens, UniProt P18507+P28472+P34903)", 1.2],
  ["Cn1ncnc1COc1nn2c(-c3ccccc3)nnc2cc1C1CCCCC1", "GABA-A receptor; alpha-3/beta-3/gamma-2 (Homo sapiens, UniProt P18507+P28472+P34903)", 4.8],
  ["Cn1ncnc1COc1nn2c(-c3ccccc3)nnc2cc1C(C)(C)C", "GABA-A receptor; alpha-3/beta-3/gamma-2 (Homo sapiens, UniProt P18507+P28472+P34903)", 0.14],
  ["c1ccc(-c2nnc3c4c(c(OCc5ccccn5)nn23)C2CCC4CC2)cc1", "GABA-A receptor; alpha-3/beta-3/gamma-2 (Homo sapiens, UniProt P18507+P28472+P34903)", 12],
  ["c1ccc(-c2cc3nnc(-c4ccccc4)n3nc2OCc2ccccn2)cc1", "GABA-A receptor; alpha-3/beta-3/gamma-2 (Homo sapiens, UniProt P18507+P28472+P34903)", 1.8],
  ["CCn1ncnc1COc1nn2c(-c3ccccc3F)nnc2cc1C(C)(C)C", "GABA-A receptor; alpha-3/beta-3/gamma-2 (Homo sapiens, UniProt P18507+P28472+P34903)", 0.2],
  ["Cn1ncnc1COc1nn2c(-c3ccccc3)nnc2cc1C1CCCC1", "GABA-A receptor; alpha-3/beta-3/gamma-2 (Homo sapiens, UniProt P18507+P28472+P34903)", 0.34]
]}

====

target: GABA-A receptor; alpha-1/beta-3/gamma-2 (Homo sapiens, UniProt P14867+P18507+P28472); test: Displacement of [3H]Ro 15-1788 from human recombinant GABAA alpha-1-beta-3-gamma-2 receptor expressed in L(tk-) cells
Sequence (P14867 whole entry): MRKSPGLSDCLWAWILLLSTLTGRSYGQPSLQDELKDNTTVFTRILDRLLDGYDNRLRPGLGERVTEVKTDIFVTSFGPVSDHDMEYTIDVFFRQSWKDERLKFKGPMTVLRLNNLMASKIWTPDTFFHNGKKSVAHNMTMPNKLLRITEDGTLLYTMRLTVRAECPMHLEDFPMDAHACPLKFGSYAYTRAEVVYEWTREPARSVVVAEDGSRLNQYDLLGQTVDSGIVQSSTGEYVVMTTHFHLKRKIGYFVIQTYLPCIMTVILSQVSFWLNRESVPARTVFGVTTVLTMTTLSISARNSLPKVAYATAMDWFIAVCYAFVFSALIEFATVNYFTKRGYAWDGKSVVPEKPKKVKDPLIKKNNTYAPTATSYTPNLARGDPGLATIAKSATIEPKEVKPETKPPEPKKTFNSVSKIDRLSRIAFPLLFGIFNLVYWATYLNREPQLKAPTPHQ
Sequence (P18507 whole entry): as the sequence (P18507 whole entry) above
Sequence (P28472 whole entry): as the sequence (P28472 whole entry) above
pKi: −log10 of the molar value.
// label = T if pKi is not less than 9, otherwise F

{"columns": ["smiles.entry", "class.assignment"],
 "data": [
  ["Cn1ncnc1COc1nn2c(-c3ccccc3)nnc2cc1C1CCCCC1", "F"],
  ["CCn1ncnc1COc1nn2c(-c3ccccc3F)nnc2cc1C(C)(C)C", "T"],
  ["Cn1ncnc1COc1nn2c(-c3ccccc3)nnc2cc1C1CCCC1", "T"],
  ["Cn1ncnc1COc1nn2c(-c3ccccc3)nnc2cc1C1CCC1", "T"],
  ["Cn1ncnc1COc1nn2c(-c3ccccc3)nnc2cc1C(C)(C)C", "T"]
]}

====

target: GABA-A receptor; alpha-1/beta-3/gamma-2 (Homo sapiens) (UniProt P14867+P18507+P28472); assay: Efficacy at human recombinant GABAA alpha-1-beta-3-gamma-2 receptor expressed in Xenopus laevis oocytes by two electrode voltage clamp method relative to GABA; type: cell-based; conditions: Oocyte
Decide using Efficacy: a value greater than or equal to 60% is Y, a smaller one is N.

{"columns": ["smiles.entry", "class.assignment"],
 "data": [
  ["Cc1ccc(-c2nc3ccc(C)cn3c2CC(=O)N(C)C)cc1", "Y"],
  ["Cn1ncnc1COc1nn2c(-c3ccccc3)nnc2cc1-c1ccccc1", "Y"],
  ["Cn1ncnc1COc1nn2c(-c3ccccc3)nnc2cc1C1CCCCC1", "Y"],
  ["c1ccc(-c2nnc3c4c(c(OCc5ccccn5)nn23)C2CCC4CC2)cc1", "N"],
  ["c1ccc(-c2cc3nnc(-c4ccccc4)n3nc2OCc2ccccn2)cc1", "Y"]
]}
